- MEASURED ON: HLA-A*02:12
- TEST: IEDB peptide-MHC binding, purified MHC/competitive/fluorescence; filed as Kd, often an IC50 or EC50 that approximates it; bounds were set here for any values at or beyond the usual limits of such assays
- TEST PARAMETERS: source organism: Plesiomonas shigelloides
pKd: −log10 of the molar value.
MEASURE: pKd

### Prompt Provide pKd value for the following sequence: "LLFRMILNY"
### Response ≤ 4.70

----------
Let's look at some sequences and their measured Kd.
- MEASURED ON: HLA-A*23:01
- TEST: IEDB peptide-MHC binding, purified MHC/competitive/radioactivity; filed as Kd, often an IC50 or EC50 that approximates it; bounds were set here for any values at or beyond the usual limits of such assays
- TEST PARAMETERS: source organism: Mammarenavirus brazilense
Value expressed in nM; do not type the unit.

Here are 2 sequences together with their reported answers.
{"columns": ["SEQUENCE", "Kd (nM)"],
 "data": [
  ["LFWAVKPKI", 2120],
  ["SFYCDPKRYF", 84.6]
]}

Lab note: next sequence to report on.
### Prompt Provide Kd value for the following sequence: "AYVNQAHHI"
### Response 47.6

Entry source: the Immune Epitope Database (IEDB)
